Protocol details: Oral bioavailability in rat at 10 mg/kg
Format: ADME, organism-based
Conditions used: in vivo
Readout: bioavailability (%)
Output spec: scalar in %, unitless text.

Ask: Name the reported bioavailability value associated with the molecule Cc1ccc(F)cc1Cn1c(N2CCC[C@@](C)(N)C2)cc2c1c(=O)n(C)c(=O)n2C.Cl
Result: 69.3

----------
Readout: IC50 (µM)
Output spec: scalar in µM, unitless text.

Ask: Test system Cytochrome P450 2D6 (Homo sapiens, UniProt P10635); read-out IC50; what value for Cc1ccc(F)cc1Cn1c(N2CCC[C@@](C)(N)C2)cc2ncn(C)c(=O)c21.Cl ?
Result: 14.3

Ask: Test system Cytochrome P450 2D6 (Homo sapiens, UniProt P10635); read-out IC50; what value for Cl.Cn1c(=O)c2c(cc(N3CCC[C@@](C)(N)C3)n2Cc2cc(F)ccc2Cl)n(C)c1=O ?
Result: 3.4
